species: Rattus norvegicus; assay: In vitro for LH release inhibition from cultured rat pituitary cells, activity is expressed as pA2 value; assay type: functional, cell-based; conditions: Pituitary gland cell, read-out: pA2 (converted)
Reported log10 of Kb values follow for various compounds
Friendly reminder: values = log10 of Kb, unit nM.

CCNC(=O)[C@@H]1CCCN1C(=O)[C@H](CCCN=C(N)N)NC(=O)[C@H](CC(C)C)NC(=O)[C@@H](CC(C)C)NC(=O)[C@H](Cc1ccc(O)cc1)NC(=O)[C@H](CO)NC(=O)[C@H](Cc1cccc2ccccc12)N(C)C(=O)[C@H](Cc1c[nH]cn1)NC(=O)[C@@H]1CCC(=O)N1 ... 2.41

Assign log10 of Kb to the following record: CCNC(=O)[C@@H]1CCCN1C(=O)[C@H](CCCN=C(N)N)NC(=O)C(CC(C)C)NC(=O)C(CC(C)C)NC(=O)[C@H](Cc1ccc(O)cc1)NC(=O)[C@H](CO)NC(=O)[C@H](Cc1c[nH]c2ccccc12)NC(=O)[C@H](Cc1ccccc1)N(C)C(=O)[C@@H]1CCC(=O)N1 (stereo in doubt)
1.47

Determine its reported log10 of Kb: CCNC(=O)[C@@H]1CCCN1C(=O)[C@H](CCCN=C(N)N)NC(=O)[C@H](CC(C)C)NC(=O)[C@@H](Cc1c[nH]c2ccccc12)NC(=O)[C@H](Cc1ccc(O)cc1)NC(=O)[C@H](CO)NC(=O)[C@H](Cc1c[nH]c2ccccc12)NC(=O)[C@H](Cc1cnc[nH]1)N(C)C(=O)[C@@H]1CCC(=O)N1
0.74

Supply log10 of Kb value. Item: CC(C)C[C@H](NC(=O)[C@@H](Cc1ccc2ccccc2c1)NC(=O)[C@H](Cc1ccc(O)cc1)NC(=O)[C@H](CO)NC(=O)[C@H](Cc1c[nH]c2ccccc12)NC(=O)[C@H](Cc1ccccc1)N(C)C(=O)[C@@H]1CCC(=O)N1)C(=O)N[C@@H](CCCN=C(N)N)C(=O)N1CCC[C@H]1C(=O)NCC(N)=O
0.20

Give log10 of Kb for the following compound: CC(C)C[C@H](NC(=O)[C@@H](Cc1ccc2ccccc2c1)NC(=O)[C@H](Cc1ccc(O)cc1)NC(=O)[C@H](CO)NC(=O)[C@H](Cc1c[nH]c2ccccc12)NC(=O)[C@H](Cc1c[nH]cn1)NC(=O)[C@@H]1CCC(=O)N1)C(=O)N(C)[C@@H](CCCN=C(N)N)C(=O)N1CCC[C@H]1C(=O)NCC(N)=O
1.05

---

test: Clearance in rat after iv dose (100 ug/kg); type: ADME, organism-based; settings: in vivo, 0.1 mg/kg
Square brackets hold non-standard residues; d marks the D form. Peptide text beside a SMILES is read from it. pGlu = O=C1CC[C@@H](C(=O)O)N1
Measured clearance, listed per entry for reference.
# unit: mL/min/kg | format: bare number

# count of solved cases: 4
CCNC(=O)[C@@H]1CCCN1C(=O)[C@H](CCCN=C(N)N)NC(=O)[C@H](CC(C)C)N(C)C(=O)[C@@H](CC(C)C)NC(=O)[C@H](Cc1ccc(O)cc1)NC(=O)[C@H](CO)NC(=O)[C@H](Cc1c[nH]c2ccccc12)NC(=O)[C@H](Cc1c[nH]cn1)NC(=O)[C@@H]1CCC(=O)N1 ... 8.3
CCNC(=O)[C@@H]1CCCN1C(=O)[C@H](CCCN=C(N)N)NC(=O)[C@H](CC(C)C)NC(=O)[C@@H](CC(C)C)NC(=O)[C@H](Cc1ccc(O)cc1)NC(=O)[C@H](CO)NC(=O)[C@H](Cc1c[nH]c2ccccc12)NC(=O)[C@H](Cc1ccccc1)NC(=O)[C@@H]1CCC(=O)N1 ([pGlu]FWSY[dL]LRP-NHEt) ... 25.4
CCNC(=O)[C@@H]1CCCN1C(=O)[C@H](CCCN=C(N)N)NC(=O)[C@H](CC(C)C)NC(=O)[C@@H](CC(C)C)NC(=O)[C@H](Cc1ccc(O)cc1)N(C)C(=O)[C@H](CO)NC(=O)[C@H](Cc1c[nH]c2ccccc12)NC(=O)[C@H](Cc1cnc[nH]1)NC(=O)[C@@H]1CCC(=O)N1 ... 8.2
CC(C)C[C@H](NC(=O)[C@@H](Cc1ccc2ccccc2c1)NC(=O)[C@H](Cc1ccc(O)cc1)N(C)C(=O)[C@H](CO)NC(=O)[C@H](Cc1c[nH]c2ccccc12)NC(=O)[C@H](Cc1c[nH]cn1)NC(=O)[C@@H]1CCC(=O)N1)C(=O)N[C@@H](CCCN=C(N)N)C(=O)N1CCC[C@H]1C(=O)NCC(N)=O ... 3.4

Give the reported value of clearance for this record: CCNC(=O)[C@@H]1CCCN1C(=O)[C@H](CCCN=C(N)N)NC(=O)[C@H](CC(C)C)NC(=O)[C@@H](Cc1c[nH]c2ccccc12)NC(=O)[C@H](Cc1ccc(O)cc1)NC(=O)[C@H](CO)NC(=O)[C@H](Cc1c[nH]c2ccccc12)NC(=O)[C@H](Cc1ccccc1)NC(=O)[C@@H]1CCC(=O)N1 ([pGlu]FWSY[dW]LRP-NHEt)
28.8

Look up and report measured clearance for this entry: CCNC(=O)[C@@H]1CCCN1C(=O)[C@H](CCCN=C(N)N)NC(=O)[C@H](CC(C)C)NC(=O)[C@@H](CC(C)C)NC(=O)[C@H](Cc1ccc(O)cc1)NC(=O)[C@H](CO)NC(=O)[C@H](Cc1cccc2ccccc12)N(C)C(=O)[C@H](Cc1c[nH]cn1)NC(=O)[C@@H]1CCC(=O)N1
14.4

Identify measured clearance corresponding to CCNC(=O)[C@@H]1CCCN1C(=O)[C@H](CCCN=C(N)N)NC(=O)[C@H](CC(C)C)NC(=O)[C@@H](Cc1c[nH]c2ccccc12)NC(=O)[C@H](Cc1ccc(O)cc1)NC(=O)[C@H](CO)N(C)C(=O)[C@H](Cc1c[nH]c2ccccc12)NC(=O)[C@H](Cc1cnc[nH]1)NC(=O)[C@@H]1CCC(=O)N1
19.9

Reference source: ChEMBL document CHEMBL1126585
